Recorded AC50 for the following molecules
test system: TFEB; experiment: TFEB nuclear translocation assay, HeLa wt cells; type: cell-based; conditions: Homo sapiens, HeLa, 2 h, 2 hrs compound treatment, Table 1 does not say HeLa wt or TRPML1 KO

Consider the following illustrative entries.
MOLECULE: CN(C)S(=O)(=O)c1ccc(S(=O)(=O)Nc2ccccc2N2CC3CCC2CN3c2ccc(Cl)cc2F)cc1 (stereo not drawn) [Compound A-26]
AC50: ≤ 2000 nM
--
MOLECULE: C[C@@H]1CN(CC2CCN(c3c(F)cccc3[C@H](C)S(=O)(=O)c3ccc(S(=N)(=O)N(C)C)cc3)CC2)C[C@H](C)O1 (single isomer, unassigned) [Compound A-931]
AC50: ≤ 2000 nM
--
MOLECULE: CC(C)(C)C(=O)N1CCN(c2ccccc2NS(=O)(=O)Cc2ccccc2)CC1 [Compound A-410]
AC50: 2010 to 8000 nM
--
MOLECULE: CN1CC2(CCN(c3ccccc3NS(=O)(=O)c3ccc(S(C)(=O)=O)cc3)CC2)c2ncccc21 [Compound A-320, formic acid]
AC50: ≥ 10000 nM
--
MOLECULE: C[C@@H]1CN(CC2CCN(c3c(F)cccc3NS(=O)(=O)c3ccc(S(C)(=N)=O)cc3)CC2)C[C@H](C)O1 (stereo partly drawn) [Compound A-841]
AC50: 2010 to 8000 nM

Now for the molecule whose AC50 we want.
Challenge: Name the recorded AC50 for CN(C)S(=O)(=O)c1ccc(S(=O)(=O)Nc2cccc(C#N)c2N2CCC3(CC2)COC(C)(C)C3)cc1 [Compound A-724] .
Response given: ≤ 2000 nM

====

// values below are reported AC50
tested on: TFEB; assay: TFEB nuclear translocation assay, HeLa wt cells; type: cell-based; conditions: Homo sapiens, HeLa, 2 h, 2 hrs compound treatment, Table 1 does not say HeLa wt or TRPML1 KO
Counter-ions that a name gives are not always drawn.

COMPOUND: COCC1(C)CCN(c2ccccc2NS(=O)(=O)c2ccc(C(C)(C)C)cc2)CC1 [Compound A-483]
AC50: ≤ 2000 nM
--
COMPOUND: CN(C)S(=O)(=O)c1ccc(S(=O)(=O)n2nc(C3CCN(c4c(F)cccc4F)CC3)c3c2CCCN3)cc1 [Compound A-503]
AC50: ≤ 2000 nM
--
COMPOUND: CCN1CCN(c2c(Cl)cccc2NS(=O)(=O)c2ccc3c(c2)CCC3)CC1 [Compound A-300, hydrochloride]
AC50: 2010 to 8000 nM

Challenge: // query AC50 value for entry CN(C)C1(c2ccc(Cl)cc2F)CCN(c2ccccc2NS(=O)(=O)c2ccc(S(=O)(=O)N(C)C)cc2)CC1 [Compound A-211]
Response given: ≤ 2000 nM

Challenge: AC50 lookup needed for COCCC1CCN(c2ccccc2NS(=O)(=O)c2ccc(S(=O)(=O)N(C)C)cc2)CC1 [Compound A-611] , thanks.
Response given: ≤ 2000 nM

Challenge: Look up AC50: CN(C)C1Cc2ccccc2C12CCN(c1ccccc1NS(=O)(=O)c1ccc(S(=O)(=O)N(C)C)cc1)CC2 (centres unmarked) [Compound A-370]
Response given: ≤ 2000 nM

Challenge: Using the record for CC(c1ccc(F)cc1N1CCC2(CC1)COC(C)(C)C2)S(=O)(=O)c1ccc(S(=O)(=O)N(C)C)cc1 (centres unmarked) [Compound A-737] , report its AC50.
Response given: ≥ 10000 nM

Challenge: So what's the measured AC50 for this one? O=S(=O)(Nc1cccc(F)c1N1CCC(CN2C3CCC2COC3)CC1)c1ccc(C(F)(F)C2CC2)cc1 [Compound A-919]
Response given: ≤ 2000 nM

Challenge: Which AC50 is listed for CN(C)S(=O)(=O)c1ccc(S(=O)(=O)Nc2ccccc2N2CCC(c3ccc(C(=O)O)cc3)CC2)cc1 [Compound A-267] ?
Response given: ≥ 10000 nM

Challenge: Given CS(=O)(=O)c1ccc(S(=O)(=O)Nc2ccccc2N2CCC3(CC2)CN(CC2CCCO2)c2cc(F)ccc23)cc1 (centres unmarked) [Compound A-467] , state its recorded AC50.
Response given: ≤ 2000 nM

Challenge: Which AC50 is reported for this compound? Cc1ccc(S(=O)(=O)Nc2ccccc2N2CCC(O)(c3ccc(F)cn3)CC2)cc1 [Compound A-408]
Response given: ≥ 10000 nM

Challenge: I have this compound here, CC(N1CCN(c2ccccc2NS(=O)(=O)c2ccc(S(=O)(=O)N(C)C)cc2)CC1)C(F)(F)F (centres unmarked) [Compound A-456] , and I need its recorded AC50.
Response given: ≤ 2000 nM

Challenge: Reported AC50 for O=S(=O)(Nc1cc(Cl)ccc1N1CCCC12CCOC2)c1ccc2c(c1)CCC2 (centres unmarked) [Compound A-346] : what is it?
Response given: ≤ 2000 nM

Challenge: Given the compound Cc1ccc(S(=O)(=O)C(C)c2cccc(F)c2N2CCC(CN3C4CCC3COC4)CC2)cc1 (centres unmarked) [Compound A-905] , what is its reported AC50?
Response given: ≤ 2000 nM

Challenge: Endpoint output: AC50 of Cc1cccc(S(=O)(=O)Nc2ccccc2N2CCC3(CC2)COC(C)(C)C3)c1 [Compound A-665] . Value?
Response given: 2010 to 8000 nM

Challenge: Fill blank: measured AC50 of the compound CC(C(=O)N1CCN(c2ccccc2NS(=O)(=O)c2ccc(S(=O)(=O)N(C)C)cc2)CC1)C(C)(C)C (centres unmarked) [Compound A-428] is ____.
Response given: ≤ 2000 nM

Challenge: Item COCC1(C)CCN(c2ccccc2NS(=O)(=O)c2ccc(S(C)(=O)=O)cc2)CC1 [Compound A-697] has what recorded AC50?
Response given: 2010 to 8000 nM

Challenge: Quick one: AC50 of CN(C)S(=O)(=O)c1ccc(S(=O)(=O)Nc2ccccc2N2CCC(c3ccc(-c4nnn[nH]4)cc3)CC2)cc1 [Compound A-273] ?
Response given: ≥ 10000 nM

Challenge: Returns the measured AC50 for the input compound. Input: CC(c1cc(Cl)cnc1N1CCC(CN2CCC(F)(F)CC2)CC1)S(=O)(=O)c1ccc2c(c1)CCC2 (single isomer, unassigned) [Compound A-993]
Response given: ≤ 2000 nM

Challenge: // returns reported AC50 for input CC1COCC(C)N1CC1CCN(c2c(F)cccc2NS(=O)(=O)c2ccc(S(=O)(=O)C(F)F)cc2)CC1 (centres unmarked) [Compound A-866]
Response given: ≤ 2000 nM

Challenge: Could you share which AC50 value was measured for COCC1(C)CCN(c2ccccc2NS(=O)(=O)c2ccc(OC(F)(F)F)cc2)CC1 [Compound A-622] ?
Response given: 2010 to 8000 nM

Challenge: Dear colleague, I am looking for the recorded AC50 of the following compound: O=S(=O)(Nc1cccc(Cl)c1N1CCOCC1)c1cccc(C2CC2)c1 [Compound A-390]
Response given: ≤ 2000 nM

Challenge: Would you kindly share the measured AC50 for COCC1(C)CCN(c2cc(F)ccc2NS(=O)(=O)c2ccc(S(=O)(=O)N(C)C)cc2)CC1 [Compound A-694] ?
Response given: ≤ 2000 nM
